target: mouse VISTA (mVISTA) (Mus musculus); construct: expressed in transfected cells; host or cells: Human embryonic kidney 293T cells; assay: Cell-Based Binding High-Content Assay For mVISTA (HC CBA mVISTA); details: 293T cells expressing mouse VISTA; competition with biotinylated peptide (2 nM); read-out: HC CBA mVISTA IC50
Sequence (Q9D659 33-308): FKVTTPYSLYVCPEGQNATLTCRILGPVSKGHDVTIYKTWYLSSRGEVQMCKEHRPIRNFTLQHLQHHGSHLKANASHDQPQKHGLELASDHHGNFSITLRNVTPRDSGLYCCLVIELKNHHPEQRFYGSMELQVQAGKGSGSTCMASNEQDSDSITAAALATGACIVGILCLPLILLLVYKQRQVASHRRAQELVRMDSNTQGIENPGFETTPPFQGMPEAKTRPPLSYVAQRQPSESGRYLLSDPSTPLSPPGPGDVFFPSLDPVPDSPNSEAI
Positions of bridges follow the written chain, without caps; N, C: chain ends. Non-standard residues stand in square brackets, D forms with d. Residues, ends and D or L forms follow the SMILES beside them. Ahp(2) = CCCCC[C@H](N)C(=O)O; NHexGly = CCCCCCNCC(=O)O
Measurement Name: IC50 (nM)
Give bare numbers, in nM.

Query IC50 on mouse VISTA (mVISTA) (Mus musculus) for CCCCCCN1CC(=O)N[C@@H](Cc2ccc(O)cc2)C(=O)N[C@@H](CC(C)C)C(=O)NCC(=O)N[C@@H](CCCNC(=N)N)C(=O)N[C@@H](CCCCN)C(=O)N[C@@H](CCCCC)C(=O)N2CCC[C@H]2C(=O)N[C@@H](C(C)C)C(=O)N[C@@H](CO)C(=O)N[C@H](C(=O)NCC(=O)O)CSCC(=O)N[C@@H](Cc2ccccc2)C(=O)N[C@@H](Cc2ccc(O)cc2)C(=O)N[C@@H](CC(=O)O)C1=O [Example 1091] ({CH2CO}-FYD[NHexGly]YLGRK[Ahp(2)]PVSCG-OH; thioether N-14) 5.3
